The values you see were collected from ChEMBL document CHEMBL3217497.

Tested on: SK-MEL-2
Test: Cytotoxicity against human SK-MEL-2 cells assessed as growth inhibition
Assay type: functional
READOUT_NAME: GI50

COMPOUND	REPORTED
COc1cc2c(c(N)c1OC)C(=O)/C(=C\c1cc(C)c(O)c(C)c1)C2 [INDANOCINE]	1000 nM
Cc1cc(/C=C2\CCc3c(n(C)c4ccccc34)C2=O)cc(C)c1O	330 nM
Cc1cc(/C=C2\Cc3c([nH]c4ccccc34)C2=O)cc(C)c1O	400 nM
Cc1cc(/C=C2\CCc3c([nH]c4ccccc34)C2=O)cc(C)c1O	320 nM

###

Assay: Cytotoxicity against human OVCAR8 cells assessed as growth inhibition
Type: functional
Conditions: OVCAR-8
Listing: GI50 of selected molecules

RECORD_SMILES	GI50 (µM)
Cc1cc(/C=C2\Cc3c([nH]c4ccccc34)C2=O)cc(C)c1O	0.99
COc1cc2c(c(N)c1OC)C(=O)/C(=C\c1cc(C)c(O)c(C)c1)C2	0.01
Cc1cc(/C=C2\CCc3c(n(C)c4ccccc34)C2=O)cc(C)c1O	0.92
Cc1cc(/C=C2\CCc3c([nH]c4ccccc34)C2=O)cc(C)c1O	0.53

###

Test system: IGROV-1
Assay: Cytotoxicity against human IGROV1 cells assessed as growth inhibition
Format: functional
READOUT_NAME: GI50 (nM)

RECORD_SMILES	READOUT_NAME	REPORTED
Cc1cc(/C=C2\CCc3c(n(C)c4ccccc34)C2=O)cc(C)c1O	GI50	1590
Cc1cc(/C=C2\CCc3c([nH]c4ccccc34)C2=O)cc(C)c1O	GI50	740
COc1cc2c(c(N)c1OC)C(=O)/C(=C\c1cc(C)c(O)c(C)c1)C2	GI50	40
Cc1cc(/C=C2\Cc3c([nH]c4ccccc34)C2=O)cc(C)c1O	GI50	3540

###

Listing: GI50 of selected compounds
System: NCI-H322M
Assay: Cytotoxicity against human NCI-H322M cells assessed as growth inhibition
Format: functional
READOUT_NAME: GI50 (nM)

RECORD_SMILES	REPORTED
Cc1cc(/C=C2\CCc3c(n(C)c4ccccc34)C2=O)cc(C)c1O	2730
COc1cc2c(c(N)c1OC)C(=O)/C(=C\c1cc(C)c(O)c(C)c1)C2	10
Cc1cc(/C=C2\Cc3c([nH]c4ccccc34)C2=O)cc(C)c1O	10400
Cc1cc(/C=C2\CCc3c([nH]c4ccccc34)C2=O)cc(C)c1O	530

###

Listing: GI50 of selected molecules
Tested on: HCT-116
Test: Cytotoxicity against human HCT116 cells assessed as growth inhibition
Type: functional

RECORD_SMILES	GI50 / nM
Cc1cc(/C=C2\Cc3c([nH]c4ccccc34)C2=O)cc(C)c1O	500
Cc1cc(/C=C2\CCc3c(n(C)c4ccccc34)C2=O)cc(C)c1O	390
COc1cc2c(c(N)c1OC)C(=O)/C(=C\c1cc(C)c(O)c(C)c1)C2	10
Cc1cc(/C=C2\CCc3c([nH]c4ccccc34)C2=O)cc(C)c1O	440

###

Experiment: Cytotoxicity against human EKVX cells assessed as growth inhibition
Assay type: functional

RECORD_SMILES	GI50 (nM)
Cc1cc(/C=C2\CCc3c([nH]c4ccccc34)C2=O)cc(C)c1O	3380
Cc1cc(/C=C2\Cc3c([nH]c4ccccc34)C2=O)cc(C)c1O	2590
COc1cc2c(c(N)c1OC)C(=O)/C(=C\c1cc(C)c(O)c(C)c1)C2	10
Cc1cc(/C=C2\CCc3c(n(C)c4ccccc34)C2=O)cc(C)c1O	4840
